Target: T1, Human CD137 ECD (human)
T1 construct: also called 4-1BB
T1 sequence (chain, as listed by the source limits assumed): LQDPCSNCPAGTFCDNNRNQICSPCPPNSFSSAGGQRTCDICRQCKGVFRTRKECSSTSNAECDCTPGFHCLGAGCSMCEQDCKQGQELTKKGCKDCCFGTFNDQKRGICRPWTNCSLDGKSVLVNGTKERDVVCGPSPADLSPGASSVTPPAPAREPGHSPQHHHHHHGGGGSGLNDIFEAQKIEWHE
Experiment: single mutant vs template dBBDu183H
# reported fold change of affinity; entries follow
Give the value, in units of fold, as a plain number.

H183/L072 VH V95M (antibody, name in Kabat numbering, V domains shown) VH: QVQLVESGGGLVQPGRSLRLSCAASGFTFSNAWMHWVRQAPGKGLEWVAQIKDKGNAYAAYYAPSVKGRFTISRDDSKNSIYLQMNSLKTEDTAVYYCHYMHYASASTVLPAFGVDAWGQGTTVTVSS VL: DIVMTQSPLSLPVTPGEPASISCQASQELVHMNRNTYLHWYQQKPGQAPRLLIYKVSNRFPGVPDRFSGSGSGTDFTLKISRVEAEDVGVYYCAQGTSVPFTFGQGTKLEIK | 0
H183/L072 VH F29L (antibody, name in Kabat numbering, V domains shown) VH: QVQLVESGGGLVQPGRSLRLSCAASGFTLSNAWMHWVRQAPGKGLEWVAQIKDKGNAYAAYYAPSVKGRFTISRDDSKNSIYLQMNSLKTEDTAVYYCHYVHYASASTVLPAFGVDAWGQGTTVTVSS VL: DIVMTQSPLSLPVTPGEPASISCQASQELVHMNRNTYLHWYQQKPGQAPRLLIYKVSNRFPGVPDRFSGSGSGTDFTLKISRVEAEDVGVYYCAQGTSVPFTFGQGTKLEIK | 0.3

// next entry
Looking up H183/L072 VH S30K (antibody, name in Kabat numbering, V domains shown) VH: QVQLVESGGGLVQPGRSLRLSCAASGFTFKNAWMHWVRQAPGKGLEWVAQIKDKGNAYAAYYAPSVKGRFTISRDDSKNSIYLQMNSLKTEDTAVYYCHYVHYASASTVLPAFGVDAWGQGTTVTVSS VL: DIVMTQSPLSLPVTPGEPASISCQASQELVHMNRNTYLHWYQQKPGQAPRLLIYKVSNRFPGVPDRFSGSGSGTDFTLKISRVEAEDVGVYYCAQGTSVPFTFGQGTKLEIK , I see its fold change of affinity listed as 0.7
